# System: SK-BR-3
# measurement notes: Antiproliferative activity against human SKBR3 cells by MTT assay
# Type: functional, cell-based
pIC50: −log10 of the molar value.
parameter measured: pIC50

In [3]: df
Out[3]:
                            compound_string  reported_value
0  COc1ccc(-c2c[nH]c3ncc(-c4cncc(NS(=O)(=O)c5ccccc5)c4)cc23)cc1OC            4.66

(I) COc1ccc(-c2c[nH]c3ncc(-c4cnc(N)c(NS(=O)(=O)N5CCOCC5)c4)cc23)cc1OC
(II) O=S(=O)(Nc1cncc(-c2cnc3[nH]cc(-c4cccnc4)c3c2)c1)c1ccccc1
-- ask Of the two listed items, which has the higher pIC50? First: I Second: II Select an item and report its label.
-- reply I

----------
# target entity: Phosphatidylinositol 4,5-bisphosphate 3-kinase catalytic subunit alpha isoform (Homo sapiens, UniProt P42336)
# Sequence (P42336 whole entry, canonical isoform): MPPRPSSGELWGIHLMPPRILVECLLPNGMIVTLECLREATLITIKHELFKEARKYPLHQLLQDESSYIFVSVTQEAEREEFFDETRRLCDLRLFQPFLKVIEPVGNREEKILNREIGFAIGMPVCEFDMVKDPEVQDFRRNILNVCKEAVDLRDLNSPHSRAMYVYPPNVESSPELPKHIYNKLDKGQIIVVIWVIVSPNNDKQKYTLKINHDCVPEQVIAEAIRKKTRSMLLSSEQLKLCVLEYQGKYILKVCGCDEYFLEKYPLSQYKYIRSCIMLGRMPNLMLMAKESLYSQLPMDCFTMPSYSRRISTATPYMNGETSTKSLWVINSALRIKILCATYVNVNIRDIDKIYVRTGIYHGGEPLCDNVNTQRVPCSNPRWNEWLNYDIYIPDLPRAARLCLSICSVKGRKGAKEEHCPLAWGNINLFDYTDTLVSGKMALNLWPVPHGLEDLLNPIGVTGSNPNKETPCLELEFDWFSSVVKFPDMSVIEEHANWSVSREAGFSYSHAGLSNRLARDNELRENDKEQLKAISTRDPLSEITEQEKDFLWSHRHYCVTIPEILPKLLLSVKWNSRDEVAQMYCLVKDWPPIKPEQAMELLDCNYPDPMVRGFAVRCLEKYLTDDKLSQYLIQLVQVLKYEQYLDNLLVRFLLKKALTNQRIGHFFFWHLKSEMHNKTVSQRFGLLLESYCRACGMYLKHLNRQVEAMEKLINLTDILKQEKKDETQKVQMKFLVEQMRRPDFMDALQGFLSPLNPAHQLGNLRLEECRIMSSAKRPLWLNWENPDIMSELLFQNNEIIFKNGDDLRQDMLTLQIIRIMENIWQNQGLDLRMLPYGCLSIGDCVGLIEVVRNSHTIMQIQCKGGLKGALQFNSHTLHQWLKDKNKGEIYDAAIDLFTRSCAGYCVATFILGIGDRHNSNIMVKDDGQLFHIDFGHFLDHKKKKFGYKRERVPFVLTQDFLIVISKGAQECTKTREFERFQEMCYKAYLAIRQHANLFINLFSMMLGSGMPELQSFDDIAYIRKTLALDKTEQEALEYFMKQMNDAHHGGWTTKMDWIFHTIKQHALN
# measurement notes: Inhibition of PI3Kalpha
parameter measured: IC50 (nM)

>>> df
                            compound_string  reported_value
0  CC(=O)c1c[nH]c2ncc(-c3cncc(NS(=O)(=O)c4ccccc4)c3)cc12             620

(A) O=S(=O)(Nc1cncc(-c2cnc3[nH]cc(-c4cccnc4)c3c2)c1)c1ccccc1
(B) CC(=O)c1c[nH]c2ncc(-c3cnc(N)c(NS(=O)(=O)N4CCOCC4)c3)cc12
(C) N#Cc1cccc(-c2c[nH]c3ncc(-c4cncc(NS(=O)(=O)c5ccc(F)cc5F)c4)cc23)c1
-- ask Ranking field: IC50; order: falling. Answer by listing the labels in the order asked for.
-- reply B, C, A

(P) N#Cc1cccc(-c2c[nH]c3ncc(-c4cnc(N)c(NS(=O)(=O)N5CCOCC5)c4)cc23)c1
(Q) COc1ccc(-c2c[nH]c3ncc(-c4cncc(NS(=O)(=O)c5ccccc5)c4)cc23)cc1OC
-- ask Identify the entry with the larger IC50. Options: P and Q State your choice using its label.
-- reply P

----------
# target entity: Phosphatidylinositol 4,5-bisphosphate 3-kinase catalytic subunit alpha isoform (Homo sapiens, UniProt P42336)
# measurement notes: Inhibition of PI3Kalpha
pIC50: −log10 of the molar value.
parameter measured: pIC50

>>> print(df.to_string())
                            compound_string  reported_value
0  COc1ccc(-c2c[nH]c3ncc(-c4cncc(N)c4)cc23)cc1OC            6.34

(I) CS(=O)(=O)Nc1cccc(-c2c[nH]c3ncc(-c4cncc(NS(=O)(=O)c5ccccc5)c4)cc23)c1
(II) N#Cc1cccc(-c2c[nH]c3ncc(-c4cncc(NS(=O)(=O)c5ccccc5)c4)cc23)c1
(III) COc1ccc(-c2c[nH]c3ncc(-c4cnc(N)c(NS(=O)(=O)c5ccc(F)cc5F)c4)cc23)cc1OC
(IV) COc1ccc(-c2c[nH]c3ncc(-c4cccc(NS(=O)(=O)c5ccccc5)c4)cc23)cc1OC
(V) O=S(=O)(Nc1cncc(-c2cnc3[nH]ccc3c2)c1)c1ccccc1
-- ask Order by pIC50, ascending. To answer, arrange all of the labels according to the requested order.
-- reply V, IV, I, II, III
(V: 5.28, IV: 5.80, I: 6.02, II: 7.51, III: 8.52)
